Collected Kd values appear next to each entry.
Target: T1, Human IL-1Rrp2/IL-1R6 protein, His Tag (ACROBiosystems, IL2-H52H6) (human, UniProt Q9HB29 20-335)
T1 construct: Bought protein; the soluble protein is likely only the extracellular part; also called hIL-36R; human IL36R antigen; not shown: His tag
T1 sequence: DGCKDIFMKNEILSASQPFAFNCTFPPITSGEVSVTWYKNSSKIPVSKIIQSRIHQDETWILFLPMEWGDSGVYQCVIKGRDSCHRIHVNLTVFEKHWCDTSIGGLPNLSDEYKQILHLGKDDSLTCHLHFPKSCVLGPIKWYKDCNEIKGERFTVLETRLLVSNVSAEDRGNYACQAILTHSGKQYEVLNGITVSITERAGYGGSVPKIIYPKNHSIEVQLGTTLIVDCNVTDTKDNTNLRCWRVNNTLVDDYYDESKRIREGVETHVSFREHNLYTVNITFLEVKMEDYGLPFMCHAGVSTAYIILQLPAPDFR
Experiment: BLI (ForteBio Octet), antibody on ProA sensor, 1:1 model
Express your answer in nM, writing the number without its unit.

Worked set:
{"Binder": "hz84C4-2.5 (antibody, human IgG4 S228P, kappa, V domains shown, Humanized, human IgG4 / kappa) VH: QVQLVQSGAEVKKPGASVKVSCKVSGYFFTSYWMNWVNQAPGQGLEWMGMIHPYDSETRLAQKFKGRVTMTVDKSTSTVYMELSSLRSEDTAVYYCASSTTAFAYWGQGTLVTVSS VL: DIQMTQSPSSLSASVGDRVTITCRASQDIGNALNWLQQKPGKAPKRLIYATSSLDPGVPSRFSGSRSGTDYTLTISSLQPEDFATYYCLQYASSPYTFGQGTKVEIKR", "Kd, nM": 1.44}
{"Binder": "hz84C4-1.2 (antibody, human IgG4 S228P, kappa, V domains shown, Humanized, human IgG4 / kappa) VH: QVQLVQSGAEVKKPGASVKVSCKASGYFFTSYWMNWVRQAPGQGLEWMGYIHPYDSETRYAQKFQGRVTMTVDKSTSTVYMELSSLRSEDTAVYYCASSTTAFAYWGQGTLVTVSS VL: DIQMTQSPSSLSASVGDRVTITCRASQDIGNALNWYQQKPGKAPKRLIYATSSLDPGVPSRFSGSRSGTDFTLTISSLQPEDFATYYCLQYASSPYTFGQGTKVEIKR", "Kd, nM": 1.61}

Need Kd of hz84C4-1.3 (antibody, human IgG4 S228P, kappa, V domains shown, Humanized, human IgG4 / kappa) VH: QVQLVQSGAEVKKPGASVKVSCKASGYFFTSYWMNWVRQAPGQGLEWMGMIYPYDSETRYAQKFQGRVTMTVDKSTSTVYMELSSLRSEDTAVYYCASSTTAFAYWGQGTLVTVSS VL: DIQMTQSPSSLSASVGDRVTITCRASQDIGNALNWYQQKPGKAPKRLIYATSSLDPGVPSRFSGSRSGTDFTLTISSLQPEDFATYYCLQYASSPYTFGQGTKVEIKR , thanks.
0.527

State the recorded Kd for this entry: hz84C4-2.4 (antibody, human IgG4 S228P, kappa, V domains shown, Humanized, human IgG4 / kappa) VH: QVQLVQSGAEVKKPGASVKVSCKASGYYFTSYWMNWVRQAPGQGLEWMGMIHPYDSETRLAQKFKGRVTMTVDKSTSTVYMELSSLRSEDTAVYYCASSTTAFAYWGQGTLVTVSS VL: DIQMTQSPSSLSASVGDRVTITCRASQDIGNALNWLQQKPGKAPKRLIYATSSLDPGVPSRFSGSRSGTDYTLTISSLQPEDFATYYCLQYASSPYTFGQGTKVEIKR
1.88
